System: Saccharomyces cerevisiae
Experiment: protein stability index of tFT-peptide fusion (C-terminal peptide) (PSI (0-1 scale)); higher = more stable (slower turnover)
Details: genetic background: das1 deletion; temperature: 30 C
PARAMETER_MEASURED: protein stability index
When you answer, write just the number.

Answered examples (5):
INPUT_SEQUENCE	protein stability index
NYDLQKLYDKID [QDR3 C-terminal 12 aa]	0.705
KEALLTRLEHMI [SWC7 C-terminal 12 aa]	0.682
DVEDVLIDTLCN [PEX22 C-terminal 12 aa]	0.723
LLEDQVPVETKA [PYC1 C-terminal 12 aa]	0.551
FPCAGSAMGSLT [YMR103C C-terminal 12 aa]	0.703

Measured protein stability index, QNDRRSVLKKYI [YER010C C-terminal 12 aa] : 0.69

Measured protein stability index, TKEAKRRAMKKK [UME6 C-terminal 12 aa] : 0.706

Measured protein stability index, YGANSQQTFEHT [YFR034W-A C-terminal 12 aa] : 0.706

Measured protein stability index, WAKRAFDGQFVK [DAP2 C-terminal 12 aa] : 0.717

Measured protein stability index, GKGKKKMVVLEW [ETR1 C-terminal 12 aa] : 0.692
